Recorded % of WT kcat/KM values for a group of proteins are listed next.
Molecular target: Factor X, P00742
Sequence (P00742 whole entry, looked up): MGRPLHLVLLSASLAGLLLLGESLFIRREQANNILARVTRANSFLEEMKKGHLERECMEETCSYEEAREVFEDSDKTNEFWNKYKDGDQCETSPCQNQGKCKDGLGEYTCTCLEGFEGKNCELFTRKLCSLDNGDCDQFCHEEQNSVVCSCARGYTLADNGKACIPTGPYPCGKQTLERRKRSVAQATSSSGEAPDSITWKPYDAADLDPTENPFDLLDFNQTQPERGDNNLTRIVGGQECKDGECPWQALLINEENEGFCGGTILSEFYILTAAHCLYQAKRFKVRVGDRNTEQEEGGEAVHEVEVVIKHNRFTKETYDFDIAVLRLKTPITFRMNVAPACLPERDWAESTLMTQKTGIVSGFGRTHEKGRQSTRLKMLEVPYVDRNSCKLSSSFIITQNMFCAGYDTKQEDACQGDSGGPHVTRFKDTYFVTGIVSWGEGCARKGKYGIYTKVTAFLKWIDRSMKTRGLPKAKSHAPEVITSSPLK
In your response, put the unit directly after the numeric value.

{"protein": "FIXa D104N/K106S/R318Y/R338E/T343R/R403E/E410N (protein) chain 1: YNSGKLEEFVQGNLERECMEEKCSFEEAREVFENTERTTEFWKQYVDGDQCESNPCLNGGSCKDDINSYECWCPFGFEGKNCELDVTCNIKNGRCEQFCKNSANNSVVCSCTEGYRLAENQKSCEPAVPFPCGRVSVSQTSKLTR chain 2: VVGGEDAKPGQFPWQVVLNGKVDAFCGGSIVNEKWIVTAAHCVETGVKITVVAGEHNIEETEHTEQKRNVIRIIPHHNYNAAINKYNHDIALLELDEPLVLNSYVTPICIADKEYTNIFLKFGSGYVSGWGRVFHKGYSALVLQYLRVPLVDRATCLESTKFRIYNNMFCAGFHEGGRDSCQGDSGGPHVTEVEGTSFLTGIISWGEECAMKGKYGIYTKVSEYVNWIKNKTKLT", "observed-property": "% of WT kcat/KM", "experimental-value": "487%"}
{"protein": "FIXa-D104N/K106S/K247N/N249S/N260S (protein) chain 1: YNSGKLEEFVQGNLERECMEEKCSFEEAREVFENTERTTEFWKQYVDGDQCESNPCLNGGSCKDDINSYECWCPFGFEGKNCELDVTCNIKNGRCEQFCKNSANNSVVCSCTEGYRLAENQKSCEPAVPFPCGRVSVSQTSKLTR chain 2: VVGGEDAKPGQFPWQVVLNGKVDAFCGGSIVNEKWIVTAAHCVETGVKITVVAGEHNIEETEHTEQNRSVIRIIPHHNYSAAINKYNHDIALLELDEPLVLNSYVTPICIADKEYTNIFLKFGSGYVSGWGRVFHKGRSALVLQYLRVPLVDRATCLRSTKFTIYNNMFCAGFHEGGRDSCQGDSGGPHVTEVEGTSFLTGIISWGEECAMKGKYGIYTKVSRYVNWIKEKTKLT", "observed-property": "% of WT kcat/KM", "experimental-value": "22%"}
{"protein": "FIXa-K247N/N249S/R318Y/R338E/T343R/R403E (protein) chain 1: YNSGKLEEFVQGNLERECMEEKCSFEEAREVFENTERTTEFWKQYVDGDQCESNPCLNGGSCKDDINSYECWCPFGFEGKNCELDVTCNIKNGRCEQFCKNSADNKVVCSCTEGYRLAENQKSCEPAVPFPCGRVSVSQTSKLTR chain 2: VVGGEDAKPGQFPWQVVLNGKVDAFCGGSIVNEKWIVTAAHCVETGVKITVVAGEHNIEETEHTEQNRSVIRIIPHHNYNAAINKYNHDIALLELDEPLVLNSYVTPICIADKEYTNIFLKFGSGYVSGWGRVFHKGYSALVLQYLRVPLVDRATCLESTKFRIYNNMFCAGFHEGGRDSCQGDSGGPHVTEVEGTSFLTGIISWGEECAMKGKYGIYTKVSEYVNWIKEKTKLT", "observed-property": "% of WT kcat/KM", "experimental-value": "886%"}

For FIXa-K228N/I251S/R318Y/R338E/R403E/E410N (protein) chain 1: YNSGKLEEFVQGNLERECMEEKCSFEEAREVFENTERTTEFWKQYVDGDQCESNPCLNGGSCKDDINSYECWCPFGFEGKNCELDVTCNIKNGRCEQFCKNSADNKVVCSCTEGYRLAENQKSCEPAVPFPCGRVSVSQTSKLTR chain 2: VVGGEDAKPGQFPWQVVLNGKVDAFCGGSIVNEKWIVTAAHCVETGVNITVVAGEHNIEETEHTEQKRNVSRIIPHHNYNAAINKYNHDIALLELDEPLVLNSYVTPICIADKEYTNIFLKFGSGYVSGWGRVFHKGYSALVLQYLRVPLVDRATCLESTKFTIYNNMFCAGFHEGGRDSCQGDSGGPHVTEVEGTSFLTGIISWGEECAMKGKYGIYTKVSEYVNWIKNKTKLT the protein record lists % of WT kcat/KM as 463%

For FIXa-R318Y/R338E/R403E/E410S (protein) chain 1: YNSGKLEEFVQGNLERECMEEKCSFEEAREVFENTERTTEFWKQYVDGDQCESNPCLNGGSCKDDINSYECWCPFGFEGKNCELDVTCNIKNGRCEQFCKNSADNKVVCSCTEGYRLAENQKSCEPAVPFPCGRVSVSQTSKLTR chain 2: VVGGEDAKPGQFPWQVVLNGKVDAFCGGSIVNEKWIVTAAHCVETGVKITVVAGEHNIEETEHTEQKRNVIRIIPHHNYNAAINKYNHDIALLELDEPLVLNSYVTPICIADKEYTNIFLKFGSGYVSGWGRVFHKGYSALVLQYLRVPLVDRATCLESTKFTIYNNMFCAGFHEGGRDSCQGDSGGPHVTEVEGTSFLTGIISWGEECAMKGKYGIYTKVSEYVNWIKSKTKLT the protein record lists % of WT kcat/KM as 401%

For FIXa R318Y/R338E/R403E/E410N/T412V (protein) chain 1: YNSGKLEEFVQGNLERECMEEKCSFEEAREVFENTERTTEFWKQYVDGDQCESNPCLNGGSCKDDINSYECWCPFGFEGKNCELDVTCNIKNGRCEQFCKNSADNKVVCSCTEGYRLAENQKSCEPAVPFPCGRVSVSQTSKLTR chain 2: VVGGEDAKPGQFPWQVVLNGKVDAFCGGSIVNEKWIVTAAHCVETGVKITVVAGEHNIEETEHTEQKRNVIRIIPHHNYNAAINKYNHDIALLELDEPLVLNSYVTPICIADKEYTNIFLKFGSGYVSGWGRVFHKGYSALVLQYLRVPLVDRATCLESTKFTIYNNMFCAGFHEGGRDSCQGDSGGPHVTEVEGTSFLTGIISWGEECAMKGKYGIYTKVSEYVNWIKNKVKLT the protein record lists % of WT kcat/KM as 342%

For FIXa-D85N/K228N/R318Y/R338E/R403E/E410N (protein) chain 1: YNSGKLEEFVQGNLERECMEEKCSFEEAREVFENTERTTEFWKQYVDGDQCESNPCLNGGSCKDDINSYECWCPFGFEGKNCELNVTCNIKNGRCEQFCKNSADNKVVCSCTEGYRLAENQKSCEPAVPFPCGRVSVSQTSKLTR chain 2: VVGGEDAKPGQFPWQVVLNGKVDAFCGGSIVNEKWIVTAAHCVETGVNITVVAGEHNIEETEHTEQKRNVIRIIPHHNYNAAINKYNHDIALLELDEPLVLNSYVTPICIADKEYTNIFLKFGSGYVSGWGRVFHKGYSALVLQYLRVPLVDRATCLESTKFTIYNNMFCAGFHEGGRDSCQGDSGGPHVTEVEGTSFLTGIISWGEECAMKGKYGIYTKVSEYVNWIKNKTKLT the protein record lists % of WT kcat/KM as 346%
